Test system: Candida albicans, Candida tropicalis, Candida stellatoidea, Candida parapsilosis, Candida krusei
Assay: In vitro anti-fungal microtiter minimum inhibitory concentration (MIC) test, geometric mean over Candida strains
Type: cell-based
Conditions: 48 h
Starred links: 1 amine or outer side, 2 acyl side, 3 side chain; linkers in the order of their positions; H or OH if unused. Non-standard residues stand in square brackets, D forms with d. Residues, ends and D or L forms follow the SMILES beside them. X1 = O=C([C@H](O[*:1])C1CCCCC1)[*:2]; X2 = O=C([C@H](O[*:1])c1ccccc1)[*:2]; X3 = O=C([C@H](O[*:1])C1CCCC1)[*:2]; X4 = O=C([C@@H](O[*:1])C1CC1)[*:2]; NMeF = CN[C@@H](Cc1ccccc1)C(=O)O; NMeT = CN[C@H](C(=O)O)[C@@H](C)O; aIle = CC[C@@H](C)[C@H](N)C(=O)O; NMeV = CN[C@H](C(=O)O)C(C)C; dHiv = CC(C)[C@@H](O)C(=O)O; Pip = O=C(O)[C@@H]1CCCCN1; Aze = O=C(O)[C@@H]1CCN1
Task for the reader: assign each of the following compounds its reported Geo. Mean MICs (μg/ml) Ca. (EMEM).
Provide only the numeric value, understood in µg/mL.

Item CC[C@@H](C)[C@@H]1NC(=O)[C@@H]2CCCN2C(=O)[C@H](Cc2ccccc2)N(C)C(=O)[C@H](Cc2ccccc2)NC(=O)[C@H](C(C)C)N(C)C(=O)[C@H](C2CC2)OC(=O)[C@H]([C@@H](C)O)N(C)C(=O)[C@H](CC(C)C)NC(=O)[C@H](C(C)C)N(C)C1=O [Compound 8] (cyclo([X4][NMeV]F[NMeF]P[aIle][NMeV]L[NMeT])) has what recorded Geo. Mean MICs (μg/ml) Ca. (EMEM)?
0.780

Follow-up item: CC[C@@H](C)[C@@H]1NC(=O)[C@@H]2CCCCN2C(=O)[C@H](Cc2ccccc2)N(C)C(=O)[C@H](Cc2ccccc2)NC(=O)[C@H](C(C)C)N(C)C(=O)[C@@H](C2CCCCC2)OC(=O)[C@H]([C@@H](C)O)N(C)C(=O)[C@H](CC(C)C)NC(=O)[C@H](C(C)C)N(C)C1=O [Compound 9] (cyclo(F[NMeF][Pip][aIle][NMeV]L[NMeT][X1][NMeV]))
0.475

Follow-up item: CC[C@@H](C)[C@@H]1NC(=O)[C@@H]2CCCN2C(=O)[C@H](Cc2ccccc2)N(C)C(=O)[C@H](Cc2ccccc2)NC(=O)[C@H](C(C)C)N(C)C(=O)[C@@H](c2ccccc2)OC(=O)[C@H]([C@@H](C)O)N(C)C(=O)[C@H](CC(C)C)NC(=O)[C@H](C(C)C)N(C)C1=O [Compound 7] (cyclo(F[NMeF]P[aIle][NMeV]L[NMeT][X2][NMeV]))
0.710

Follow-up item: CC[C@@H](C)[C@@H]1NC(=O)[C@@H]2CCN2C(=O)[C@H](Cc2ccccc2)N(C)C(=O)[C@H](Cc2ccccc2)NC(=O)[C@H](C(C)C)N(C)C(=O)[C@@H](C2CCCC2)OC(=O)[C@H]([C@@H](C)O)N(C)C(=O)[C@H](CC(C)C)NC(=O)[C@H](C(C)C)N(C)C1=O [Compound 5] (cyclo([Aze][aIle][NMeV]L[NMeT][X3][NMeV]F[NMeF]))
0.195

Follow-up item: CC[C@@H](C)[C@@H]1NC(=O)[C@@H]2CCCN2C(=O)[C@H](Cc2ccccc2)N(C)C(=O)[C@H](Cc2ccccc2)NC(=O)[C@H](C(C)C)N(C)C(=O)[C@@H](C(C)C)OC(=O)[C@H]([C@@H](C)O)N(C)C(=O)[C@H](CC(C)C)NC(=O)[C@H](C(C)C)N(C)C1=O [Compound 4] (cyclo(F[NMeF]P[aIle][NMeV]L[NMeT][dHiv][NMeV]))
0.500

Follow-up item: CC[C@@H](C)[C@@H]1NC(=O)[C@@H]2CCCN2C(=O)[C@H](Cc2ccccc2)N(C)C(=O)[C@H](Cc2ccccc2)NC(=O)[C@H](C(C)C)N(C)C(=O)[C@@H](C2CCCC2)OC(=O)[C@H]([C@@H](C)O)N(C)C(=O)[C@H](CC(C)C)NC(=O)[C@H](C(C)C)N(C)C1=O [Compound 6] (cyclo(F[NMeF]P[aIle][NMeV]L[NMeT][X3][NMeV]))
0.500

These data points were gathered from patent US5739104A.
